Consider the following molecules; for each one, report its Emax at 1 h.
tested on: ABCG2 (Homo sapiens); test: Inhibition of sulfasalazine-stimulated ABCG2 ATPase activity (unknown origin) expressed in baculovirus infected Sf9 insect cells using ATP as substrate measured after 1 hr by colorimetric assay relative to FTC; conditions: probe ATP, read-out: Imax
Number only, in %; omit the unit.

Exam item: Output Emax at 1 h of CCC(=O)c1ccc(-c2cn(-c3ccc(CCN4CCc5cc(OC)c(OCCOCCOCCOC)cc5C4)cc3)nn2)cc1NC(=O)c1ccc2ccccc2n1
Marked response: 112

Exam item: Output Emax at 1 h of COc1ccc(C(=O)N2CCc3c([nH]c4ccccc34)C2c2ccc(Cl)c(Cl)c2)cc1 (centres undefined)
Marked response: 141

Exam item: Output Emax at 1 h of COc1ccc2[nH]cc(CCNC(=O)c3cc(=O)c4c(OCc5ccc(Br)cc5)cccc4o3)c2c1
Marked response: 113

Exam item: Output Emax at 1 h of COC(=O)c1ccc(C(=O)Nc2ccc(CCN3CCc4cc(OC)c(OC)cc4C3)cc2)cc1NC(=O)c1ccc2ccccc2n1
Marked response: 105

// provenance: ChEMBL document CHEMBL4680204
